Reference source: ChEMBL document CHEMBL1153789

// reported IC50 for each item listed
Test system: MCF7
Test: Antiproliferative activity in human MCF7 cells after 96 hrs by MTT assay
Assay type: functional, cell-based
Conditions: MCF7, 96 h
Field note: include the unit after the figure.

{"given smiles": "COc1cc2oc(-c3ccc(O)c(O)c3)cc(=O)c2c(O)c1OC", "experimental result": "8 µM"}

Now look at this one.
Any idea what IC50 was measured for `COc1ccc(-c2cc(=O)c3c(O)c(OC)c(OC)cc3o2)cc1O` ?
7 µM
